# reported z-score; entries follow
- assay: optical density change of DRC41 E. coli – strain DRC41, OD650, 24 h, E. coli filamentation project, primary screen (AID 1093);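 further: MC1000 strain lacking acrAB efflux and sulA so SOS filamentation is blocked; test concentration not given here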
- conditions-used: E. coli DRC41 growth, higher = more signal, called active from +8 up or from −8 down
Activity calls are given as the source filed them.
measured-property: z-score

mol-smiles	measurement
O=S(=O)(NCCCO)c1ccc(Br)cc1	0.707 (inactive)
CCCC[C@H]1OB(O)C[C@H]2C1=C(COc1ccccc1)C[C@H]1C(=O)N(Cc3ccccc3)C(=O)[C@H]12	0.194 (inactive)
COc1ccc(C#Cc2ccc3c(c2)[C@]2(C(=O)N3)[C@H](C(=O)N3CCc4cc(OC)c(OC)cc4C3)[C@H]3C(=O)O[C@H](c4ccccc4)[C@H](c4ccccc4)N3[C@@H]2c2ccc(OCCO)cc2)cc1	1.9 (inactive)
C=CCOC(=O)[C@@H]1[C@H]2C(=O)O[C@H](c3ccccc3)[C@H](c3ccccc3)N2[C@H](c2ccc(OCCOC(=O)[C@H]3C[C@H]4C(=O)N[C@@H](CCCC[N+](C)(C)C)C(=O)N4[C@H]3c3cccc(OCCO)c3)cc2)[C@@]12C(=O)Nc1ccc(I)cc12	0.254 (inactive)
[N-]=[N+]=NCc1ccccc1C[C@]1(C(=O)NCc2ccccc2)COC(c2ccc(OCCCO)cc2)=N1	1.21 (inactive)
CC(C)C[C@@H]1NC(=O)[C@@H]2C[C@H](C(=O)NCCCCN(C)C)[C@H](c3ccc(O)cc3)N2C1=O	-0.0929 (inactive)
C=C(CCCC)/C(=C/C[C@@H](OC(=O)c1ccncc1)c1ccc(CO)o1)c1cc(C(=O)OC)ccc1OC	0.635 (inactive)

----------
- assay: probe aShh binding to arrayed compounds – biochemical, biotinylated probe, 635/667 nm fluorescence, primary screen (AID 1114);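 further: probe is biotin-labelled aShh protein from a stem cell growth factor screen; measures binding of labelled protein to compounds printed on the slide; score merges feature fluorescence at 667 nm with signal-to-noise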
- conditions-used: small-molecule microarray, higher = more signal
# reported composite z-score; entries follow
measured-property: composite z-score

molecule	measurement
COc1ccc([Si](C)(C)[C@@H]2[C@@H](CCn3cc([C@H](O)c4ccccc4)nn3)O[C@]3(C(=O)N(C)c4ccccc43)[C@H]2C)cc1	-0.0769
C=C(CCCC)/C(=C/C[C@@H](OC(=O)c1ccncc1)c1ccc(CO)o1)c1cc(C(=O)OC)ccc1OC	-0.0011
Cc1c(NC(=O)/C(C#N)=C/C=C/c2ccccc2)c(=O)n(-c2ccccc2)n1C	-0.416
C=CCN1C(=O)[C@]2(COC(c3ccc(OCCCO)cc3)=N2)Cc2ccccc21	0.0253
CC(C)NC(=O)[C@@]1(c2ccc([N+](=O)[O-])cc2)CC(=O)N(C(C)C)[C@@H]1c1ccc(CO)cc1	0.0899
CN1C(=O)C2C(C1=O)C1C=C(c3ccc(CO)cc3)C2C(C2CC2)N1Cc1cc2c(cc1Br)OCO2 (centres undefined)	-0.0866
O=C1OCCC/C=C\[C@H]2OC34C=CCN(Cn5nnc6ccccc65)C(=O)[C@H]3N(CCCO)C(=O)[C@@H]4C12 (some centres undefined)	0.0952
COCCOC(=O)N1C(=O)[C@@]2(c3cc(C#CC4(O)CCCCCC4)ccc31)[C@H](c1ccc(O)cc1)N1[C@H](c3ccccc3)[C@H](c3ccccc3)OC(=O)[C@H]1[C@@H]2C(=O)N1CCc2cc(OC)c(OC)cc2C1	0.0756
C=C(CCCC)/C(=C/C[C@H](OC(C)=O)c1ccc(CO)o1)c1cc(C(=O)OC)ccc1OC	0.0639

----------
- assay: small molecules captured by biotinylated probe aFST – biochemical, small-molecule microarray, fluorescence 635/667, stem cell growth factor project, primary screen (AID 1086);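 further: score merges 667 nm fluorescence with signal-to-noise of each printed compound spot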
- conditions-used: higher = more signal
measured-property: composite z-score

> print(dat)
                                   compound  measurement
1  CC1CC/C=C\[C@H]2OC34C=CCN(CCN5CCOCC5)C(=O)[C@H]3N(CCCCCO)C(=O)[C@@H]4C2C(=O)O1 (stereo partly drawn)       -0.633
2  C=C(C(=O)CC[C@@H](OC(C)=O)c1ccc(OCCO)cc1)C(C)C       -0.193
3  O=C(NCc1ccccc1)[C@@H]1c2ccccc2C(=O)N(Cc2cc(F)cc(C(F)(F)F)c2)[C@H]1c1ccc(CO)cc1       0.0906
4  CC(=O)N1Cc2ccccc2C[C@@]2(N=C(c3ccc(OCCCO)cc3)O[C@H]2c2ccccc2)C1=O         1.55
5  CN(C)CCCC[C@@H]1NC(=O)[C@@H]2C[C@H](C(=O)NCCCCCN)[C@H](c3ccc(O)cc3)N2C1=O       0.0993
6  CCCCCCC#C[Si](O[C@H](c1ccccc1)c1cn([C@H](C)c2ccccc2)nn1)(C(C)C)C(C)C       -0.495
7  C=C[C@H](C)[C@H](OC(=O)Nc1ccc(OC)cc1)c1ccc(O)c2ccccc12       -0.304
8  C=C(CCCC)C(=O)CC[C@H](OC(C)=O)c1ccc(CO)o1       -0.402

----------
- System: Noggin (protein binding on small-molecule microarray)
- assay: small molecules binding Noggin protein – biochemical, 635/667 nm fluorescence, primary screen (AID 1095);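 further: score merges 667 nm feature fluorescence with signal to noise over triplicate slides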
- conditions-used: 635 nm fluorescence, higher = more signal
Record rule met whenever composite z-score is at -0.5 or higher; record rule not met when lower.

> print(dat)
                                    compound  answer.label
 1  CCCC[C@H]1C[C@@H]1[C@@H]1N(P(=O)(c2ccccc2)c2ccccc2)[C@](CO)(c2ccccc2)CC12CC2  rule not met
 2  COC(=O)[C@@]1(Cc2ccc(OC)cc2)[C@H]2c3cc(C(=O)N4CCCC4)n(C[C@H](O)CO)c3C[C@H]2CN1C(=O)c1ccccc1  rule not met
 3  O=C(NCC(F)(F)F)[C@@H]1c2ccccc2C(=O)N(Cc2ccccc2)[C@H]1c1ccc(CO)cc1  rule not met
 4  C=CCN1C(=O)[C@@]2(O[C@@H](CCO)[C@H]([Si](C)(C)c3ccc(OC)cc3)[C@H]2C)c2cc(N3C(=O)COc4ccccc43)ccc21      rule met
 5  [N-]=[N+]=NCc1ccccc1[C@H]1OC(c2ccc(OCCCO)cc2)=N[C@@]1(Cc1ccccc1)C(=O)NCC(O)CO (stereo not given in full)      rule met
 6  COCC1C2CC[C@H]3C(OCc4ccc(F)cc4C(F)(F)F)OC[C@]4(C)[C@H]3C2=C(CN4C(=O)OC(C)(C)C)[C@H](C)C1COC (stereo not given in full)  rule not met
 7  CO[C@H]1O[C@H](CO)[C@@H](OC(=O)Nc2ccccc2-c2ccccc2)[C@H](OC(=O)Nc2ccccc2-c2ccccc2)[C@H]1OC(=O)Nc1ccccc1-c1ccccc1      rule met
 8  COc1ccc([Si](C)(C)[C@@H]2[C@@H](CCO)O[C@]3(C(=O)N(Cc4cccc(N5CCCCC5=O)c4)c4ccccc43)[C@H]2C)cc1      rule met
 9  CCN(CC)c1ccc(N2CC=CC34O[C@@H]5/C=C\CCCOC(=O)C5[C@H]3C(=O)N(CCCO)[C@@H]4C2=O)cc1 (stereo not given in full)  rule not met
10  C[N+](C)(C)CCCCNC(=O)[C@H]1C[C@H]2C(=O)N3CCC[C@H]3C(=O)N2[C@H]1c1ccc(O)cc1      rule met
11  CN1C(=O)C2C=CC(C(O)C3=C[C@H]4C[C@@H](C3)C4(C)C)N(Nc3ccc([N+](=O)[O-])cc3[N+](=O)[O-])C2C1=O (stereo not given in full)      rule met
12  Cc1ccc(N2C(=O)c3ccccc3[C@](C)(C(=O)NCCN3CCOCC3)[C@@H]2c2ccc(CO)cc2)nc1  rule not met
13  COc1ccccc1CN1C(=O)c2ccccc2[C@](Cc2ccccc2I)(C(=O)NCc2ccccc2)[C@@H]1c1ccc(CO)cc1      rule met
14  Cc1ccc(S(=O)(=O)N2CC(C(=O)O)=CCC2c2ccccc2)cc1 (stereo not given)  rule not met

----------
- assay: JC-1 mitochondrial signal, unstimulated adipocytes – cell-based, JC-1 fluorescence, 3T3-L1 adipocytes, 24 h, 100 nL compound, profiling panel (AID 1168); further: test concentration not given here
- conditions-used: JC-1 mitochondrial fluorescence, higher = more signal, called active from +8 up or from −8 down
Record YES whenever z-score is at -0.2 or higher; record NO when lower.

molecule	answer-label
COCCOC(=O)N1C(=O)[C@@]2(c3cc(C#CCC(C(=O)OC)C(=O)OC)ccc31)[C@H](c1ccc(OCCO)cc1)N1[C@H](c3ccccc3)[C@H](c3ccccc3)OC(=O)[C@H]1[C@@H]2C(=O)NC[C@H](O)c1ccccc1	YES
CN1C(=O)C2C(C1=O)C1C=C(c3ccc(CO)cc3)C2C(C2CC2)N1Cc1cc2c(cc1Br)OCO2 (configuration not stated)	YES
C=CCC(OC(C)=O)[C@@H]1[C@@H](N(Cc2ccc(-c3ccccc3)cc2)C(=O)c2ccc(C)cc2)c2cc(OCCCO)ccc2N1C(=O)Cc1ccc(OC)cc1 (some centres not stated)	YES
CC(C)[Si]1(C(C)C)O[C@@H](c2ccccc2)c2cc(-c3ccc(-c4ccc(Cl)c(Cl)c4)o3)nc(CCc3ccccc3)c21	NO
CN(C)CCCCCCNC(=O)[C@@H]1C[C@@H]2C(=O)NCC(=O)N2[C@@H]1c1cccc(OCCO)c1	YES
CCCCN1CC=CC23O[C@@H]4C=CCCOC(=O)C4[C@H]2C(=O)N(CCCO)[C@@H]3C1=O (some centres not stated)	NO
